# Test Target: RAC-gamma serine/threonine-protein kinase (Homo sapiens)
# Sequence (Q9Y243 whole entry): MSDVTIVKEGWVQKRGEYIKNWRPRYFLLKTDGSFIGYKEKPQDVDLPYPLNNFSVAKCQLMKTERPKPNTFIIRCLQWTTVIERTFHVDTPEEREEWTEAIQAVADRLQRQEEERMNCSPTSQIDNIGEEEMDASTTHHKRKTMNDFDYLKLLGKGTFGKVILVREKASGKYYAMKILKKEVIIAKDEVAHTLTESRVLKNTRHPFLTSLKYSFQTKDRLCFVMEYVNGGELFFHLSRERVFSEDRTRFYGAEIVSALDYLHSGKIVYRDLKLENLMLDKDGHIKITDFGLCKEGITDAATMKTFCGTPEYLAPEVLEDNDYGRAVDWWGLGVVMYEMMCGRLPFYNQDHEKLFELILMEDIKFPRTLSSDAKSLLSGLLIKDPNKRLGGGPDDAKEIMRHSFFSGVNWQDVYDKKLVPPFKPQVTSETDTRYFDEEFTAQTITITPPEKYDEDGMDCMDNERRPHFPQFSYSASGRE
Value Kind: IC50 (nM)
Expressed in nM, but write only the number.

Field request: IC50 | item: N[C@H](COc1cncc(-c2ccc3cnccc3c2)c1)Cc1c[nH]c2ccccc12
35

====

# Test Target: Protein kinase C gamma type (Homo sapiens, UniProt P05129)
Value Kind: IC50 (nM)
All answers are understood in nM, so give the number only.

State its IC50 on Protein kinase C gamma type (Homo sapiens, UniProt P05129): N[C@H](COc1cncc(-c2ccc3cnccc3c2)c1)Cc1c[nH]c2ccccc12
270

====

# Test Target: UniProtKB P06493
# Sequence (P06493 whole entry): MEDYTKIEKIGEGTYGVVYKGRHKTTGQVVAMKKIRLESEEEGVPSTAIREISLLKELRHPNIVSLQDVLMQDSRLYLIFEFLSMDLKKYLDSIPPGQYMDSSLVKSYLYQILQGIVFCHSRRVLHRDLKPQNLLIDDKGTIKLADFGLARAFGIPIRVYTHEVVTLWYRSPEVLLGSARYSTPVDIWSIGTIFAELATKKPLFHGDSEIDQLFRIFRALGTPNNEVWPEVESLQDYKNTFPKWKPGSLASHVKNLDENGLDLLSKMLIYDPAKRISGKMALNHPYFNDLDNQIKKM
Value Kind: IC50 (µM)
All answers are understood in µM, so give the number only.

What reported IC50 corresponds to N[C@H](COc1cncc(-c2ccc3cnccc3c2)c1)Cc1c[nH]c2ccccc12 on UniProtKB P06493?
0.1

Measured values drawn from ChEMBL document CHEMBL1146102 for this set.
